Molecular target: human 5-HT2A receptor (Homo sapiens, UniProt P28223)
Construct: expressed in transfected cells; host or cells: CHO-K1
Sequence (P28223 whole entry): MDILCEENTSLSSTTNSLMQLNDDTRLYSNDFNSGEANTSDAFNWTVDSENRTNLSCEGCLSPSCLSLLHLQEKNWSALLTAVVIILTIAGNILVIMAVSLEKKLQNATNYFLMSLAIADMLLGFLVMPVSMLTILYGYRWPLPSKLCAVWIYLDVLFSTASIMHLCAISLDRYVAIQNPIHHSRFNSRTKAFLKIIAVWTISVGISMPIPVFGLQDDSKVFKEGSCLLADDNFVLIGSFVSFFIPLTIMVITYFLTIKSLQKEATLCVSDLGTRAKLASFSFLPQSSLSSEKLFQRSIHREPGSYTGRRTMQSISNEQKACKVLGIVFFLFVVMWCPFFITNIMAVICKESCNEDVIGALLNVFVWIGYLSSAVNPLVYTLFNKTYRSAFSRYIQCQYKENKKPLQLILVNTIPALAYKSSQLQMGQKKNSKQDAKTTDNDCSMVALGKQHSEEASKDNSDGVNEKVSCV
Experiment: Human 5-HT2A functional assay (calcium mobilisation in CHO-K1 cells)
Type: cell-based
Conditions: potency in functional assay; agonism (first addition), calcium mobilisation
property: EC50

CC1CNCc2cccc3c2N1CCC3C(F)(F)F (single isomer, unassigned) [Isomer 4.A] | > 10 µM

**Q:** Looking for the measured EC50 of CC1CNCc2cccc3c2N1CCC3C(F)F (stereo not drawn) [Example 5] , can you help?
**A:** > 10 µM

**Q:** Try this compound next: CC1CNCc2cccc3c2N1CCC3C(F)F (single isomer, unassigned) [Isomer 5.A]
**A:** < 0.02 µM

**Q:** Would you kindly repeat that for COCC1CCN2c3c(cccc31)CNCC2C (stereo not drawn) [Example 9] ?
**A:** > 10 µM

**Q:** // query: CCOCC1CCN2c3c(cccc31)CNCC2C (stereo not drawn) [Example 8]
**A:** > 10 µM

**Q:** Next up: CC1CNCc2cccc3c2N1CCC3CF (stereo not drawn) [Example 7]
**A:** > 10 µM

**Q:** Also CC1CNCc2cccc3c2N1CCC3C(F)(F)F (stereo not drawn) [Example 4] ?
**A:** > 10 µM

**Q:** And then CC1CNCc2cccc3c2N1CCC3C(F)(F)F (single isomer, unassigned) [Isomer 4.C] , what is it?
**A:** 0.02 to 0.2 µM

**Q:** Also check CC1CNCc2cccc3c2N1CCC3C(F)F (single isomer, unassigned) [Isomer 5.B]
**A:** > 10 µM

* * *

Molecular target: human 5-HT2B receptor (Homo sapiens)
Construct: expressed in transfected cells; host or cells: CHO-FlpIn
Sequence (P41595 whole entry): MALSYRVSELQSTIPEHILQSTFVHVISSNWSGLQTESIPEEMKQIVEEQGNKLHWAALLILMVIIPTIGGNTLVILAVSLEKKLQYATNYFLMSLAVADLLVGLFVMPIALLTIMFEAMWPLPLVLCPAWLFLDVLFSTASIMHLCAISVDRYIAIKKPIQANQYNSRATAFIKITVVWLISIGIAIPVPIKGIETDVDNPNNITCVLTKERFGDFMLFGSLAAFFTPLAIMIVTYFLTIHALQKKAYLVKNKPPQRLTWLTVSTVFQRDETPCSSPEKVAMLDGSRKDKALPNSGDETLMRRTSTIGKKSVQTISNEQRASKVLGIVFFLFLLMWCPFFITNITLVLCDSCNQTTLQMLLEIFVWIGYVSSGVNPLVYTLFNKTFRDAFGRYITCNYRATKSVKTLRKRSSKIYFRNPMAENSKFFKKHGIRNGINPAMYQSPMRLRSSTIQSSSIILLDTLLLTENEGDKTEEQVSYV
Experiment: Human 5-HT2B functional assay (calcium mobilisation in CHO-FlpIn cells)
Type: cell-based
Settings: potency in functional assay; agonism (first addition), calcium mobilisation
pEC50: −log10 of the molar value.
// pEC50 lookup, one value per entry

# example entries with known answers
CC1CNCc2cccc3c2N1CCC3C(F)F (single isomer, unassigned) [Isomer 5.A] | 6.00 to 6.70
CC1CNCc2cccc3c2N1CCC3C(F)F (single isomer, unassigned) [Isomer 5.B] | < 5.00
CC1CNCc2cccc3c2N1CCC3C(F)(F)F (single isomer, unassigned) [Isomer 4.A] | < 5.00
CC1CNCc2cccc3c2N1CCC3C(F)F (single isomer, unassigned) [Isomer 5.C] | < 5.00
CC1CNCc2cccc3c2N1CCC3CF (stereo not drawn) | < 5.00

**Q:** Recorded pEC50 for COCC1CCN2c3c(cccc31)CNCC2C (stereo not drawn) , please?
**A:** < 5.00

**Q:** Then CC1CNCc2cccc3c2N1CCC3C(F)(F)F (single isomer, unassigned) [Isomer 4.C] ?
**A:** 6.70 to 7.70

**Q:** Field entry: CC1CNCc2cccc3c2N1CCC3C(F)(F)F (single isomer, unassigned) [Isomer 4.D]
**A:** 6.00 to 6.70

**Q:** Same read-out for CCOCC1CCN2c3c(cccc31)CNCC2C (stereo not drawn) ?
**A:** < 5.00

* * *

Target: human 5-HT2A receptor (Homo sapiens)
Construct: expressed in transfected cells; host or cells: CHO-K1
Experiment: Human 5-HT2A functional assay (calcium mobilisation in CHO-K1 cells)
Type: cell-based
Settings: potency in functional assay; agonism (first addition), calcium mobilisation; listed as 5.D
property: EC50

**Q:** Query: EC50; subject: CC1CNCc2cccc3c2N1CCC3C(F)F (single isomer, unassigned) [Isomer 5.D]
**A:** > 10 µM
